METHOD: AUC (0 to 24 hrs) in Sprague-Dawley rat at 10 mg/kg, iv after 5 mins to 24 hrs by LC-MS/MS analysis
Format: ADME, organism-based
Parameters: time < 24 hr, dose 10 mg/kg, route intravenous
ASSAY_CONTEXT: in vivo

{"SMI": "CCN(CC)CCN(Cc1ccc(-c2ccc(C(F)(F)F)cc2)cc1)C(=O)Cn1c(SCc2ccc(F)cc2)nc(=O)c2c1CCC2", "AUC(0-t) at 24 h, ng·h/mL": 1200}

---

METHOD: Cmax in Sprague-Dawley rat at 50 mg/kg, po after 0.5 to 24 hrs by LC-MS/MS analysis
Format: ADME, organism-based
Parameters: dose 50 mg/kg, route oral
ASSAY_CONTEXT: in vivo

{"SMI": "CCN(CC)CCN(Cc1ccc(-c2ccc(C(F)(F)F)cc2)cc1)C(=O)Cn1c(SCc2ccc(F)cc2)nc(=O)c2c1CCC2", "Cmax": "115 ng/mL"}

---

METHOD: AUC (0 to 24 hrs) in Sprague-Dawley rat at 50 mg/kg, po after 0.5 to 24 hrs by LC-MS/MS analysis
Type: ADME, organism-based
Set-up: time < 24 hr, dose 50 mg/kg, route oral
ASSAY_CONTEXT: in vivo
READOUT_KIND: AUC(0-t) at 24 h (ng·h/mL)

{"SMI": "CCN(CC)CCN(Cc1ccc(-c2ccc(C(F)(F)F)cc2)cc1)C(=O)Cn1c(SCc2ccc(F)cc2)nc(=O)c2c1CCC2", "READOUT_UNIT": "ng·h/mL", "VALUE_OBSERVED": 1300}
